system: A375 multi-cell spheroids with HUVEC/MSC, viability; assay: Anticancer human tumor A375 cell line growth inhibition [GQUAD]; conditions: second compound 0.0316 µM; first compound 0.00316 µM; stronger effect = lower value;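 further: spheroids exposed to compounds for seven days before readout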

compound	viability, T/C (%)
CC[C@@]1(O)C(=O)OCc2c1cc1n(c2=O)Cc2cc3c(CN(C)C)c(O)ccc3nc2-1 + CN(C)c1ccc(Nc2c3ccc(NC(=O)CCN4CCCC4)cc3nc3cc(NC(=O)CCN4CCCC4)ccc23)cc1	107
CC[C@@]1(O)C(=O)OCc2c1cc1n(c2=O)Cc2cc3c(CN(C)C)c(O)ccc3nc2-1 + Cc1[nH]c2ccc(F)cc2c1-c1nc2c3cccnc3c3ncccc3c2[nH]1	110
CCc1c2c(nc3ccc(O)cc13)-c1cc3c(c(=O)n1C2)COC(=O)[C@]3(O)CC + Cc1cnc(CNC(=O)c2c(=O)c3ccc(N4CCCN(C)CC4)nc3n3c2sc2ccccc23)cn1	15.6
CCc1c2c(nc3ccc(O)cc13)-c1cc3c(c(=O)n1C2)COC(=O)[C@]3(O)CC + Cc1[nH]c2ccc(F)cc2c1-c1nc2c3cccnc3c3ncccc3c2[nH]1	20
Cc1[nH]c2ccccc2c1CCNCc1ccc(/C=C/C(=O)NO)cc1 + CN(C)c1ccc(Nc2c3ccc(NC(=O)CCN4CCCC4)cc3nc3cc(NC(=O)CCN4CCCC4)ccc23)cc1	101
Cn1ncnc1[C@H]1c2n[nH]c(=O)c3cc(F)cc(c23)N[C@@H]1c1ccc(F)cc1 + CN(C)c1ccc(Nc2c3ccc(NC(=O)CCN4CCCC4)cc3nc3cc(NC(=O)CCN4CCCC4)ccc23)cc1	104

----------
test system: A375 multi-cell spheroids with HUVEC/MSC, viability; experiment: Anticancer human tumor A375 cell line growth inhibition [GQUAD]; conditions: curve of first compound; second compound 3.16 µM;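 further: spheroids exposed to compounds for seven days before readout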
Measured IC50, listed per entry.
observation-type: IC50 (nM)

compound	relation-symbol	recorded-measurement
Cc1[nH]c2ccccc2c1CCNCc1ccc(/C=C/C(=O)NO)cc1 + CN(C)c1ccc(Nc2c3ccc(NC(=O)CCN4CCCC4)cc3nc3cc(NC(=O)CCN4CCCC4)ccc23)cc1	=	106
COc1cc(C2c3cc4c(cc3C(OC3OC5COC(C)OC5C(O)C3O)C3COC(=O)C23)OCO4)cc(OC)c1O (stereo not given) + Cc1[nH]c2ccc(F)cc2c1-c1nc2c3cccnc3c3ncccc3c2[nH]1	=	1300
COc1cc(C2c3cc4c(cc3C(OC3OC5COC(C)OC5C(O)C3O)C3COC(=O)C23)OCO4)cc(OC)c1O (stereo not given) + CN(C)c1ccc(Nc2c3ccc(NC(=O)CCN4CCCC4)cc3nc3cc(NC(=O)CCN4CCCC4)ccc23)cc1	=	1580
Nc1ccn(C2OC(CO)C(O)C2(F)F)c(=O)n1 (stereo not given) + Cc1[nH]c2ccc(F)cc2c1-c1nc2c3cccnc3c3ncccc3c2[nH]1	<	31.6
CC[C@@]1(O)C(=O)OCc2c1cc1n(c2=O)Cc2cc3c(CN(C)C)c(O)ccc3nc2-1 + Cc1cnc(CNC(=O)c2c(=O)c3ccc(N4CCCN(C)CC4)nc3n3c2sc2ccccc23)cn1	<	0.999

----------
Test system: A375 multi-cell spheroids with HUVEC/MSC, viability
Experiment: Anticancer human tumor A375 cell line growth inhibition [GQUAD]; active = viability on the fitted dose curve at most 10% of control; inactive = the rest;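 further: spheroids exposed to compounds for seven days before readout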
Conditions: second compound 0.0316 µM; first compound 0.316 µM
Excerpt: DNA G-quadruplex Stabilizer Agents in Combinations in Complex Spheroids A high-throughput screen of multi-cell type tumor spheroids was designed to identify active combinations of DNA G-quadruplex stabilizer agents and targeted small molecules. […] Compounds. […] If the clinical Cmax for an agent had not been determined, the highest concentration tested was 10 microM. […]
Labels: label 1 for active, label 0 for inactive

compound	label-class
C#Cc1c(F)ccc2cc(O)cc(-c3ncc4c(N5CC6CCC(C5)N6)nc(OCC56CCCN5CC(F)C6)nc4c3F)c12 (stereo not given) + Cc1cnc(CNC(=O)c2c(=O)c3ccc(N4CCCN(C)CC4)nc3n3c2sc2ccccc23)cn1	label 0
COc1ncnc(C2CC2)c1-c1ncc2cnn(Cc3ccc(-c4nc(C(F)(F)F)cn4C(C)C)cc3)c2n1 + Cc1[nH]c2ccc(F)cc2c1-c1nc2c3cccnc3c3ncccc3c2[nH]1	label 0
O=c1[nH]cc(F)c(=O)[nH]1 + Cc1[nH]c2ccc(F)cc2c1-c1nc2c3cccnc3c3ncccc3c2[nH]1	label 0
COc1cccc2c1C(=O)c1c(O)c3c(c(O)c1C2=O)CC(O)(C(=O)CO)CC3OC1CC(N)C(O)C(C)O1 (stereo not given) + Cc1cnc(CNC(=O)c2c(=O)c3ccc(N4CCCN(C)CC4)nc3n3c2sc2ccccc23)cn1	label 0
C=CC(=O)N1CCN(c2nc(=O)n(-c3c(C)ccnc3C(C)C)c3nc(-c4c(O)cccc4F)c(F)cc23)C(C)C1 (stereo not given) + Cc1cnc(CNC(=O)c2c(=O)c3ccc(N4CCCN(C)CC4)nc3n3c2sc2ccccc23)cn1	label 0
CC(C)(O)C1CCC(Nc2ccc3ncc(-c4cccc(C(F)(F)F)c4)n3n2)CC1 (stereo not given) + Cc1cnc(CNC(=O)c2c(=O)c3ccc(N4CCCN(C)CC4)nc3n3c2sc2ccccc23)cn1	label 0
Nc1ccn(C2OC(CO)C(O)C2(F)F)c(=O)n1 (stereo not given) + Cc1[nH]c2ccc(F)cc2c1-c1nc2c3cccnc3c3ncccc3c2[nH]1	label 1
CC(=O)O[C@H]1C(=O)[C@@]2(C)[C@H]([C@H](OC(=O)c3ccccc3)[C@]3(O)C[C@H](OC(=O)[C@H](O)[C@@H](NC(=O)c4ccccc4)c4ccccc4)C(C)=C1C3(C)C)[C@]1(OC(C)=O)CO[C@@H]1C[C@@H]2O + CN(C)c1ccc(Nc2c3ccc(NC(=O)CCN4CCCC4)cc3nc3cc(NC(=O)CCN4CCCC4)ccc23)cc1	label 0
COc1cc(C2c3cc4c(cc3C(OC3OC5COC(C)OC5C(O)C3O)C3COC(=O)C23)OCO4)cc(OC)c1O (stereo not given) + CN(C)c1ccc(Nc2c3ccc(NC(=O)CCN4CCCC4)cc3nc3cc(NC(=O)CCN4CCCC4)ccc23)cc1	label 0
CC(C)n1c(=O)n(C)c2cnc3cc(F)c(-c4ccc(OCCCN5CCCCC5)nc4)cc3c21 + Cc1[nH]c2ccc(F)cc2c1-c1nc2c3cccnc3c3ncccc3c2[nH]1	label 0

Just for reference, PubChem BioAssay AID2060485 is where these values come from.
